Where do these numbers come from? They come from ChEMBL document CHEMBL1136879.

# TARGET UNDER TEST: Disintegrin and metalloproteinase domain-containing protein 17 (Homo sapiens) (UniProt P78536)
# Sequence (P78536 whole entry, the tested form may be a part): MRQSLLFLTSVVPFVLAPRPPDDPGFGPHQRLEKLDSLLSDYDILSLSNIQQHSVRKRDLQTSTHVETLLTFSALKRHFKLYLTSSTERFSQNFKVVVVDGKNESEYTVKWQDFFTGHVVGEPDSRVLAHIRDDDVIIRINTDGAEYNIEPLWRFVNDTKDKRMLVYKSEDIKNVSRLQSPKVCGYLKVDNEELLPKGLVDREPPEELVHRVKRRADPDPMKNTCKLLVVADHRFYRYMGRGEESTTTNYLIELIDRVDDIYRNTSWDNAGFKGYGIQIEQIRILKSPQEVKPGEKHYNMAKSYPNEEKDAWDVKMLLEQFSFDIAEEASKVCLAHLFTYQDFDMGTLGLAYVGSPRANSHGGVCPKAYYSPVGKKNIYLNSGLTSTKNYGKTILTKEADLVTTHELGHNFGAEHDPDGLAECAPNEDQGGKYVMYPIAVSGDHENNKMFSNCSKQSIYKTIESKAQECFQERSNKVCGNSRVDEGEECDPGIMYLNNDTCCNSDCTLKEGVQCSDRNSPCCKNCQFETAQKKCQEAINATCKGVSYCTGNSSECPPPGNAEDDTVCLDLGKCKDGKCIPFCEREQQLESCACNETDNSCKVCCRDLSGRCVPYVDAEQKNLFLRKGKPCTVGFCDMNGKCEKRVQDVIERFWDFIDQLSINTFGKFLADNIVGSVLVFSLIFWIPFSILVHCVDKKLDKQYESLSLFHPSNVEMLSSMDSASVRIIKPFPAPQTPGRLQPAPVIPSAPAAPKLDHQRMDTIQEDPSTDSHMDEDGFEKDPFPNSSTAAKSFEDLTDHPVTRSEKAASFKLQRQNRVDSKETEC
# TEST: Inhibition of TACE in human THP1 cell lysate at 0.1 uM/L by spectrofluorimetric ELISA relative to control
# Format: cell-free
# RUN CONDITIONS: THP-1
Each entry gets Not satisfied if its inhibition stays under 50%, and Satisfied if its inhibition is 50% or above.

| MOLECULE | ANSWER LABEL |
| --- | --- |
| COc1ccc(CSc2ccc(N3CCN(C(C)C(=O)O)C3=O)cc2)cc1 (stereo not given) | Not satisfied |
| CC(C)Cc1cc(COc2ccc(N3CCN(C(C)C(=O)O)C3=O)cc2)c2ccccc2n1 (stereo not given) | Not satisfied |
| CCc1cc(COc2ccc(N3CCN(C(C)C(=O)NO)C3=O)cc2)c2ccccc2n1 (stereo not given) | Satisfied |
| CC(C(=O)NO)N1CCN(c2ccc(OCc3cccc4ccccc34)cc2)C1=O (stereo not given) | Not satisfied |
| CC(C(=O)NO)N1CCCN(c2ccc(OCc3cccc4ccccc34)cc2)C1=O (stereo not given) | Not satisfied |

Is reported inhibition greater than or equal to 50% here: CC(C)Cc1cc(COc2ccc(N3CCN(C(C)C(=O)NO)C3=O)cc2)c2ccccc2n1 (stereo not given)
Satisfied

Does the reported inhibition for CC(C(=O)NO)N1CCCN(c2ccc(OCc3ccccn3)cc2)C1=O (stereo not given) fall at or above the 50% mark?
Not satisfied

Given CC(C(=O)O)N1CCCN(c2ccc(OCc3ccccn3)cc2)C1=O (stereo not given) , state whether its inhibition is at least 50%.
Not satisfied
